# IC50 values compiled below
# Test system: Ba/F3 ERBB2 YVMA
# test: Cell viability assay (CellTiter Glo), Ba/F3 cells engineered to express ERBB2 YVMA
# Assay type: cell-based
# test context: Mus musculus, BaF3, 72 h, Ba/F3 cells expressing human ERBB2 YVMA mutant; 72 hours; cell viability, CellTiter Glo; read-out: Ba/F3 ERBB2 YVMA, IC50
readout label: IC50 (nM)

> print(dat)
                                   compound  unit.of.measure  value.operator  measured.number
1  CC#CC(=O)N1CCN2C[C@@H]1COc1cc3ncnc(Nc4ccc(Oc5ccn6ncnc6c5)c(C)c4)c3cc12               nM               >              500
2  CNC/C=C/C(=O)N1CCN2C[C@H]1COc1cc3ncnc(Nc4cc(C)c(Oc5ccn6ncnc6c5)cc4F)c3nc12               nM               =             37.6
3  Cc1cc(Nc2ncnc3cc4c(nc23)N2CCN(C(=O)/C=C/[C@H]3CCCN3C)[C@H](CO4)C2)c(F)cc1Oc1ccn2ncnc2c1               nM               =             8.67
4  Cc1cc(Nc2ncnc3cc4c(nc23)N2CCN(C(=O)/C=C/C3CN(C)C3)[C@H](CO4)C2)ccc1Oc1ccn2ncnc2c1               nM               =             46.7
5  Cc1cc(Nc2ncnc3cc4c(nc23)N2CCCN(C(=O)/C=C/CN(C)C)C(CO4)C2)ccc1Oc1ccn2ncnc2c1 (racemic)               nM               =             8.66
6  [2H]C([2H])(/C=C/C(=O)N1CCN2C[C@H]1COc1cc3ncnc(Nc4cc(C)c(Oc5ccn6ncnc6c5)cc4F)c3nc12)N(C)C               nM               =             7.79

* * *

# Test system: Ba/F3 ERBB2 YVMA
# test: Cell viability assay (CellTiter Glo), Ba/F3 cells engineered to express ERBB2 YVMA
# Assay type: cell-based
# test context: Mus musculus, BaF3, 72 h, Ba/F3 cells expressing human ERBB2 YVMA mutant; 72 hours; cell viability, CellTiter Glo; read-out: Ba/F3 ERBB2 YVMA, IC50
pIC50: −log10 of the molar value.
Hi! Could you tag entries with pIC50 below 8 as Condition met, and those at or above as Condition not met? Much appreciated.

> print(dat)
                                   compound        label.class
1  Cc1cc(Nc2ncnc3cc4c(cc23)N2CCN(C(=O)/C=C/CN(C)C)[C@@H](CO4)C2)ccc1Oc1ccn2ncnc2c1      Condition met
2  Cc1cc(Nc2ncnc3ccc(NC4=NC(C)(C)CO4)cc23)ccc1Oc1ccn2ncnc2c1 [Tucatinib, tucatinib, reference compound]      Condition met
3  Cc1c(Oc2ccn3ncnc3c2)ccc(Nc2ncnc3cc4c(nc23)N2CCN(C(=O)/C=C/CN(C)C)[C@H](CO4)C2)c1F  Condition not met
4  Cc1cc(Nc2ncnc3cc4c(nc23)N2CCN(C(=O)/C=C/[C@@H](C)N(C)C)[C@H](CO4)C2)ccc1Oc1ccn2ncnc2c1      Condition met
5  CC#CC(=O)N1CCN2C[C@H]1COc1cc3ncnc(Nc4ccc(Oc5ccn6ncnc6c5)c(C)c4)c3nc12      Condition met
6  CN(C)C/C=C/C(=O)N1CCN2C[C@H]1COc1cc3ncnc(Nc4ccc(Oc5ccn6ncnc6c5)c(Cl)c4)c3nc12  Condition not met

Where do these numbers come from? They come from patent US11807649B2.
